# tested.target: Human BCL-XL protein (N-terminal HiBiT tagged BCL-XL in HT1080 cells) (Homo sapiens, UniProt Q07817)
# Construct: expressed in transfected cells; host or cells: HT-1080 (ATCC CCL-121), stably transduced with lentivirus pLV-UBC-N-HiBiT-BCL-XL-PGK-puro and selected with puromycin
# Sequence (Q07817 whole entry): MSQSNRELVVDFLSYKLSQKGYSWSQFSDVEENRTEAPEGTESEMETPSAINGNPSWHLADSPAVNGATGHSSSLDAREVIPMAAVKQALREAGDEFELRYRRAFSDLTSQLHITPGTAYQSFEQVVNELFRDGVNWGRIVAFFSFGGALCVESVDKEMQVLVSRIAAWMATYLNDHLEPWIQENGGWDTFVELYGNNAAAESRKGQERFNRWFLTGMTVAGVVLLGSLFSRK
# assay: HiBiT based degradation assay
# Assay type: cell-based
# particulars: BCL-XL degradation normalized with DMSO control; HT1080 cells expressing HiBiT-BCL-XL; 24 h
# Protocol: Human BCL-XL protein coding open reading frame fused with N-terminal HiBiT coding sequence was synthesized from Integrated DNA Technologies (IDT). […] HT1080 cells expressing N-terminal HiBiT tagged BCL-XL were dispensed into a 384-well plate pre-spotted with compounds at varying concentrations. […] After incubation, luminescence was read on a PHERAstar FSX Plate Reader (BMG). […]
observable: Ymin (24 h)

>>> measured("Cc1c(OCCCC2CCN(CC3CCN(c4ccc5c(C6CCC(=O)NC6=O)nn(C)c5c4)CC3)CC2)cccc1-c1ccc(N2CCc3cccc(C(=O)Nc4nc5ccccc5s4)c3C2)nc1C(=O)O (stereo not drawn)")
"A (Ymin < 50%)"
>>> measured("Cc1c(O[C@H]2CC[C@H](CCCCN3CCC(Oc4ccc5c(C6CCC(=O)NC6=O)nn(C)c5c4)CC3)CC2)cccc1-c1ccc(N2CCc3cccc(C(=O)Nc4nc5ccccc5s4)c3C2)nc1C(=O)O (stereo partly drawn) [Compound 326a]")
"A (Ymin < 50%)"
>>> measured("Cc1c(O[C@H]2CC[C@H](CCCCN3CCC[C@H](c4cccc5c(C6CCC(=O)NC6=O)nn(C)c45)C3)CC2)cccc1-c1ccc(N2CCc3cccc(C(=O)Nc4nc5ccccc5s4)c3C2)nc1C(=O)O (single isomer, unassigned) [Compound 351a]")
"A (Ymin < 50%)"
>>> measured("Cc1c(OCC2CC3(CCN(CC(=O)Nc4ccc5c(C6CCC(=O)NC6=O)nn(C)c5c4)CC3)C2)cccc1-c1ccc(N2CCc3cccc(C(=O)Nc4nc5ccccc5s4)c3C2)nc1C(=O)O (stereo not drawn)")
"A (Ymin < 50%)"
>>> measured("Cc1c(OCCCN2CCN(CCCOc3ccc4c(C5CCC(=O)NC5=O)nn(C)c4c3)CC2)cccc1-c1ccc(N2CCc3cccc(C(=O)Nc4nc5ccccc5s4)c3C2)nc1C(=O)O (stereo not drawn)")
"A (Ymin < 50%)"
>>> measured("Cc1c(OCC(F)(F)CN2C[C@@H](C)N(CC(=O)Nc3ccc4c(C5CCC(=O)NC5=O)nn(C)c4c3)[C@@H](C)C2)cccc1-c1ccc(N2CCc3cccc(C(=O)Nc4nc5ccccc5s4)c3C2)nc1C(=O)O (stereo partly drawn) [Compound 177a]")
"B (50% ≤ Ymin < 70%)"
>>> measured("Cc1c(OCCC[C@H]2CCN(CC(=O)Nc3ccc4c(C5CCC(=O)NC5=O)nn(C)c4c3)[C@H](C)C2)cccc1-c1ccc(N2CCc3cccc(C(=O)Nc4nc5ccccc5s4)c3C2)nc1C(=O)O (stereo partly drawn) [Compound 343b]")
"A (Ymin < 50%)"
>>> measured("Cc1c(CCCCN2CCN(CC(=O)Nc3ccc4c(C5CCC(=O)NC5=O)nn(C)c4c3)CC2)cccc1-c1ccc(N2CCc3cccc(C(=O)Nc4nc5ccccc5s4)c3C2)nc1C(=O)O (stereo not drawn)")
"A (Ymin < 50%)"
>>> measured("Cc1c(OCCCCCCCN2CCN(c3cccc4c(C5CCC(=O)NC5=O)nn(C)c34)CC2)cccc1-c1ccc(N2CCc3cccc(C(=O)Nc4nc5ccccc5s4)c3C2)nc1C(=O)O (stereo not drawn)")
"B (50% ≤ Ymin < 70%)"
